- STUDY_TARGET: T1, soluble human TNF-alpha (human, UniProt P01375 77-233)
- T1 construct: Recombinant, bought (Invitrogen PHC3015 in some assays); also called hs-TNF-alpha; h-TNF-alpha
- T1 sequence (P01375 77-233 limits assumed): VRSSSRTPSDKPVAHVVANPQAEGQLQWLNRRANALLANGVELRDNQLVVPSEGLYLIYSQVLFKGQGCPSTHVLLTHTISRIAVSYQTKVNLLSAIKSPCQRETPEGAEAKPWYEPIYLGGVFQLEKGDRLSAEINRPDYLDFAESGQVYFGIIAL
- EXPERIMENT_SUMMARY: competition ELISA: VHH mixed with human TNF-alpha, binding to coated etanercept (TNFR2-Fc)
REPORTED_ENDPOINT: EC50 (nM)
Just the number please, in nM, no unit attached.

Q62E10 (VHH, not shown: small tags and cut ends, Family 2; purified from E. coli) VHH: QVQLVESGGGLVQPGGSLRLSCTTSGLDFGIHWMYWFRQAPGKELEWVAEINTNALITKYADSVKGRFTISRDNAKNTLFLQMNDLKSEDTAVYYCSNTQNGAAKGQGVQVTVSS; 0.8
Q65A3 (VHH, not shown: small tags and cut ends, Family 2; purified from E. coli) VHH: EVQLVESGGGLVQPGGSLRPSCTTSGLDFGIHWMYWFRQAPGKELEWVAEINTNALITKYADSVKGRFTISRDNAKNTLFLQMNDLKSEDTAVYYCSNTQNGAAKGQGVQVTVSS; 1.3

(Q) What value of measured EC50 is listed for Q65D3 (VHH, not shown: small tags and cut ends, Family 1; purified from E. coli) VHH: EVQLVESGGGLVQPGGSLRLSCVASGFDFSSHWMYWVRQAPGKGLEWVSEINTNGLITKYADSTKGRFTVSRDNAANMLNLEMTSLEPEDTALYYCARNERGLNKGQGTQVTVSS ?
(A) 0.33
